measurement_notes: Emulsion dilution: crystallisation of tebuconazole in emulsions, ocular inspection
Assay type: physicochemical
Parameters: key: +: no crystals visible; −: crystals visible
condition: 5° C., 96 h, formulation:tap water 1:200, 250 g/l tebuconazole
readout_name: Crystallisation of tebuconazole in emulsion

CCCCCCCCN(C)C(=O)CC [N-methyl-N-octyl propanamide] ... −
CCCCCC(CCC)CN(C)C=O (stereo not shown) [N-methyl-N-(2-propylheptyl) formamide, N-methyl-N-(2-propylheptyl)-formamide] ... +
CCCCCCCCCC(=O)N(C)C [N,N-dimethyl decanamide] ... −
CCCCCCCCCCN(C)C=O [N-methyl-N-(n-decyl) formamide] ... +

* * *

measurement_notes: Emulsion dilution: crystallisation of tebuconazole in emulsions, ocular inspection
Format: physicochemical
Parameters: key: +: no crystals visible; −: crystals visible
condition: 5° C., 48 h, formulation:tap water 1:200, 250 g/l tebuconazole
readout_name: Crystallisation of tebuconazole in emulsion

CCCCCCCCCCN(C)C=O [N-methyl-N-(n-decyl) formamide] ... +
CCCCCC(CCC)CN(C)C=O (stereo not shown) [N-methyl-N-(2-propylheptyl) formamide, N-methyl-N-(2-propylheptyl)-formamide] ... +
CCCCCCCCCC(=O)N(C)C [N,N-dimethyl decanamide] ... −
CCCCCCCCN(C)C(=O)CC [N-methyl-N-octyl propanamide] ... −

* * *

measurement_notes: Emulsion dilution: crystallisation of tebuconazole in emulsions, ocular inspection
Assay type: physicochemical
Design: key: +: no crystals visible; −: crystals visible
condition: 5° C., 96 h, formulation:tap water 1:150, 250 g/l tebuconazole
readout_name: Crystallisation of tebuconazole in emulsion

CCCCCCCCCCN(C)C=O [N-methyl-N-(n-decyl) formamide] ... +
CCCCCCCCCC(=O)N(C)C [N,N-dimethyl decanamide] ... −
CCCCCC(CCC)CN(C)C=O (stereo not shown) [N-methyl-N-(2-propylheptyl) formamide, N-methyl-N-(2-propylheptyl)-formamide] ... +
CCCCCCCCN(C)C(=O)CC [N-methyl-N-octyl propanamide] ... −

* * *

measurement_notes: Emulsion dilution: crystallisation of tebuconazole in emulsions, ocular inspection
Format: physicochemical
Set-up: key: +: no crystals visible; −: crystals visible
condition: 5° C., 12 h, formulation:tap water 1:500, 250 g/l tebuconazole
readout_name: Crystallisation of tebuconazole in emulsion

CCCCCC(CCC)CN(C)C=O (stereo not shown) [N-methyl-N-(2-propylheptyl) formamide, N-methyl-N-(2-propylheptyl)-formamide] ... +
CCCCCCCCN(C)C(=O)CC [N-methyl-N-octyl propanamide] ... −
CCCCCCCCCC(=O)N(C)C [N,N-dimethyl decanamide] ... −
CCCCCCCCCCN(C)C=O [N-methyl-N-(n-decyl) formamide] ... +

* * *

measurement_notes: Emulsion dilution: crystallisation of tebuconazole in emulsions, ocular inspection
Format: physicochemical
Design: key: +: no crystals visible; −: crystals visible
condition: 5° C., 72 h, formulation:tap water 1:200, 250 g/l tebuconazole
readout_name: Crystallisation of tebuconazole in emulsion

CCCCCCCCN(C)C(=O)CC [N-methyl-N-octyl propanamide] ... −
CCCCCC(CCC)CN(C)C=O (stereo not shown) [N-methyl-N-(2-propylheptyl) formamide, N-methyl-N-(2-propylheptyl)-formamide] ... +
CCCCCCCCCCN(C)C=O [N-methyl-N-(n-decyl) formamide] ... +
CCCCCCCCCC(=O)N(C)C [N,N-dimethyl decanamide] ... −
